# measured on: T1, NgBR (Homo sapiens, UniProt Q96E22)
# T1 sequence (Q96E22 1-293): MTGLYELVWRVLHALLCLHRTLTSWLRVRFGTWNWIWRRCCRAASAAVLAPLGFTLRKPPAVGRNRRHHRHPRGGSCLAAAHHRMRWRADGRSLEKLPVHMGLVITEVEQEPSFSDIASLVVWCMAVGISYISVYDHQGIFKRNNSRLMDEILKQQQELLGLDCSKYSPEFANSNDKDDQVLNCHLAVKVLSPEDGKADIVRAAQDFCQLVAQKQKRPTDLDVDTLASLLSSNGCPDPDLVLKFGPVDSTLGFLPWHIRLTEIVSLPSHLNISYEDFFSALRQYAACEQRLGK
# experimental protocol: AP fusion protein binding to CHO cells expressing NgBR
# Set-up: an isolated cDNA encoding NgBR is 2,636 base pairs encoding an open reading frame of 293 amino acids; expressed in transfected cells
# run parameters: CHO cells expressing NgBR (FIGS. 11, 14)
parameter: surface binding of AP fusion domains to NgBR-expressing cells

molecule	measurement
AP-Am-Nogo-B: purified alkaline phosphatase (AP) fusion protein with residues 1-200 at the amino terminus of Nogo-B (protein, left off: small tags and cut ends; large carriers, purified alkaline phosphatase (AP) fusion protein with residues 1-200 at the amino terminus of Nogo-B) MEDLDQSPLVSSSDSPPRPQPAFKYQFVREPEDEEEEEEEEEEDEDEDLEELEVLERKPAAGLSAAPVPTAPAAGAPLMDFGNDFVPPAPRGPLPAAPPVAPERQPSWDPSPVSSTVPAPSPLSAAAVSPSKLPEDDEPPARPPPPPPASVSPQAEPVWTPPAPAPAAPPSTPAAPKRRGSSGSVVVDLLYWRDIKKTGV	did
AP-Nogo-66: AP fusion of Nogo-66, a 66 amino acid residue loop in the RHD (protein, left off: large carriers, AP fusion of Nogo-66, a 66 amino acid residue loop in the RHD) RIYKGVIQAIQKSDEGHPFRAYLESEVAISEELVQKYSNSALGHVNCTIKELRRLFLVDDLVDSLK	did not bind
Ap-Nogo-B (61-200): AP fusion with amino acids 61-200 of Nogo-B (protein, left off: large carriers, AP fusion with amino acids 61-200 of Nogo-B) AGLSAAPVPTAPAAGAPLMDFGNDFVPPAPRGPLPAAPPVAPERQPSWDPSPVSSTVPAPSPLSAAAVSPSKLPEDDEPPARPPPPPPASVSPQAEPVWTPPAPAPAAPPSTPAAPKRRGSSGSVVVDLLYWRDIKKTGV	did
AP-Nogo-B (amino acids 1-180): AP fusion with amino acids 1-180 of Nogo-B (protein, left off: large carriers, AP fusion with amino acids 1-180 of Nogo-B) MEDLDQSPLVSSSDSPPRPQPAFKYQFVREPEDEEEEEEEEEEDEDEDLEELEVLERKPAAGLSAAPVPTAPAAGAPLMDFGNDFVPPAPRGPLPAAPPVAPERQPSWDPSPVSSTVPAPSPLSAAAVSPSKLPEDDEPPARPPPPPPASVSPQAEPVWTPPAPAPAAPPSTPAAPKRRG	did not bind
AP-Nogo-A (59-172): AP fusion with biologically active domain 59-172 of Nogo-A (protein, left off: large carriers) PAAGLSAAPVPTAPAAGAPLMDFGNDFVPPAPRGPLPAAPPVAPERQPSWDPSPVSSTVPAPSPLSAAAVSPSKLPEDDEPPARPPPPPPASVSPQAEPVWTPPAPAPAAPPST	did not bind
